Source listed as patent US10150793B2.

Readings of % Inhibition temperature decrease for the listed compounds
Molecular target: CB1 receptor (Mus musculus, UniProt P47746)
Sequence (P47746 whole entry): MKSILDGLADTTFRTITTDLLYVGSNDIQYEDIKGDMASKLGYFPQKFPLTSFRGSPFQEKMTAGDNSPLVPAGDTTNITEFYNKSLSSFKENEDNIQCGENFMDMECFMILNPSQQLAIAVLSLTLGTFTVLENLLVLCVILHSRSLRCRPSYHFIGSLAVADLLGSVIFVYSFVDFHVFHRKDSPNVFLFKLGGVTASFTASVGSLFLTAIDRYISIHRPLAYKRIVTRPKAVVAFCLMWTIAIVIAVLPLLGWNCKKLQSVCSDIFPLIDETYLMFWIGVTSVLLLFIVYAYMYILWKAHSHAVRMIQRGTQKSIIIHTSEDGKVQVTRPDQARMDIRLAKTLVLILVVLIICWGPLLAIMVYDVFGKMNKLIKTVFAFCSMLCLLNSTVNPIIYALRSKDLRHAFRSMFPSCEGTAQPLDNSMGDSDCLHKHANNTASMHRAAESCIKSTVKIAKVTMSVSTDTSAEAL
Experiment: THC-induced cannabinoid tetrad (body temperature, locomotor activity, catalepsy, analgesia)
Assay type: in vivo, mice
Design: tissue Charles River Laboratories (France) (animals); host or cells: living mice, whole animal
Conditions: mice; THC 10 mg/kg; compounds 6 mg/kg 15-30 min before THC
QUANTITY: % Inhibition temperature decrease

INSERT INTO results (compound, tested_system, quantity, reported_result) VALUES
  ('CC(=O)[C@@]1(C)CCC2C3CCC4=CC(=O)CC[C@]4(C)C3CC[C@@]21C (stereo partly drawn)', 'CB1 receptor (Mus musculus, UniProt P47746)', '% Inhibition temperature decrease', '18%, P < 0.02'),
  ('COC1(C(C)=O)CCC2C3CC=C4C[C@@H](O)CC[C@]4(C)C3CC[C@@]21C (stereo partly drawn)', 'CB1 receptor (Mus musculus, UniProt P47746)', '% Inhibition temperature decrease', '54%, P < 0.001'),
  ('CC(=O)[C@H]1CCC2C3CC[C@@H]4C[C@@H](O)CC[C@]4(C)C3CC[C@@]21C (stereo partly drawn)', 'CB1 receptor (Mus musculus, UniProt P47746)', '% Inhibition temperature decrease', '70%, P < 0.0001'),
  ('C[C@H](O)[C@@]1(O)CCC2C3CCC4=CC(=O)CC[C@]4(C)C3CC[C@@]21C (stereo in doubt)', 'CB1 receptor (Mus musculus, UniProt P47746)', '% Inhibition temperature decrease', '45%, P < 0.001'),
  ('C=CC[C@]1(C(C)=O)CCC2C3CC=C4C[C@@H](OC)CC[C@]4(C)C3CC[C@@]21C (stereo partly drawn)', 'CB1 receptor (Mus musculus, UniProt P47746)', '% Inhibition temperature decrease', '4%, P > 0.39'),
  ('C[C@@H](O)[C@H]1CCC2C3CCC4=C[C@@H](O)CC[C@]4(C)C3CC[C@@]21C (stereo in doubt)', 'CB1 receptor (Mus musculus, UniProt P47746)', '% Inhibition temperature decrease', '42%, P < 0.004');

* * *

% Inhibition of THC-Induced food intake by entry:
Biological target: CB1 receptor (Mus musculus, UniProt P47746)
Assay: THC-induced increase in food intake in mice
Format: in vivo
Set-up: tissue Charles River Laboratories (France) (animals); host or cells: living mice, whole animal
Details: mice; THC between 0.5 and 1 mg/kg; compounds between 2 and 4 mg/kg 30 min before THC
QUANTITY: % Inhibition of THC-Induced food intake

INSERT INTO assay_data (molecule, quantity, reported_result) VALUES
  ('C[C@@H](O)[C@H]1CCC2C3CCC4=C[C@@H](O)CC[C@]4(C)C3CC[C@@]21C (stereo in doubt)', '% Inhibition of THC-Induced food intake', '≥100%, P < 0.001'),
  ('C[C@@H](O)[C@H]1CCC2C3CCC4=CC(=O)CC[C@]4(C)C3CC[C@@]21C (stereo in doubt)', '% Inhibition of THC-Induced food intake', '30%, P > 0.25'),
  ('COC1(C(C)=O)CCC2C3CC=C4C[C@@H](O)CC[C@]4(C)C3CC[C@@]21C (some centres unmarked)', '% Inhibition of THC-Induced food intake', '≥100%, P < 0.003'),
  ('CC(=O)[C@H]1CCC2C3CC[C@@H]4C[C@@H](O)CC[C@]4(C)C3CC[C@@]21C (some centres unmarked)', '% Inhibition of THC-Induced food intake', '≥100%, P < 0.01'),
  ('C[C@H](O)[C@H]1CCC2C3CC=C4C[C@@H](O)CC[C@]4(C)C3CC[C@@]21C (some centres unmarked)', '% Inhibition of THC-Induced food intake', '85%, P < 0.03'),
  ('CC(=O)[C@@]1(C)CCC2C3CC=C4C[C@@H](F)CC[C@]4(C)C3CC[C@@]21C (some centres unmarked)', '% Inhibition of THC-Induced food intake', '≥100%, P < 0.01'),
  ('CC(=O)C1=CC[C@H]2[C@@H]3CC=C4CCCC[C@]4(C)[C@H]3CC[C@]12C', '% Inhibition of THC-Induced food intake', '≥100%, P < 0.02'),
  ('CC(=O)C1CCC2C3CC=C4C[C@@H](F)CC[C@]4(C)C3CC[C@]12C (some centres unmarked)', '% Inhibition of THC-Induced food intake', '≥100%, P < 0.01'),
  ('CC(=O)[C@H]1CC[C@H]2[C@@H]3CC[C@@H]4CC(=O)CC[C@]4(C)[C@H]3CC[C@]12C', '% Inhibition of THC-Induced food intake', '≥100%, P < 0.002'),
  ('CC(=O)[C@@]1(C)CCC2C3CCC4=CC(=O)CC[C@]4(C)C3CC[C@@]21C (some centres unmarked)', '% Inhibition of THC-Induced food intake', '74%, P < 0.07'),
  ('CC(=O)[C@@]1(C)CCC2C3CC=C4C[C@@H](O)CC[C@]4(C)C3CC[C@@]21C (some centres unmarked)', '% Inhibition of THC-Induced food intake', '≥100%, P < 0.001'),
  ('CC(=O)[C@H]1CCC2C3CC=C4CC(N=[N+]=[N-])CC[C@]4(C)C3CC[C@@]21C (some centres unmarked)', '% Inhibition of THC-Induced food intake', '≥100%, P < 0.001'),
  ('CC(=O)[C@@]1(Cc2ccccc2)CCC2C3CC=C4C[C@@H](O)CC[C@]4(C)C3CC[C@@]21C (some centres unmarked)', '% Inhibition of THC-Induced food intake', '≥100%, P < 0.001'),
  ('C[C@H](O)[C@@]1(O)CCC2C3CCC4=CC(=O)CC[C@]4(C)C3CC[C@@]21C (stereo in doubt)', '% Inhibition of THC-Induced food intake', '70%, P < 0.06');
